target: Non-receptor tyrosine-protein kinase TYK2 (Homo sapiens, UniProt P29597)
Sequence (P29597 whole entry): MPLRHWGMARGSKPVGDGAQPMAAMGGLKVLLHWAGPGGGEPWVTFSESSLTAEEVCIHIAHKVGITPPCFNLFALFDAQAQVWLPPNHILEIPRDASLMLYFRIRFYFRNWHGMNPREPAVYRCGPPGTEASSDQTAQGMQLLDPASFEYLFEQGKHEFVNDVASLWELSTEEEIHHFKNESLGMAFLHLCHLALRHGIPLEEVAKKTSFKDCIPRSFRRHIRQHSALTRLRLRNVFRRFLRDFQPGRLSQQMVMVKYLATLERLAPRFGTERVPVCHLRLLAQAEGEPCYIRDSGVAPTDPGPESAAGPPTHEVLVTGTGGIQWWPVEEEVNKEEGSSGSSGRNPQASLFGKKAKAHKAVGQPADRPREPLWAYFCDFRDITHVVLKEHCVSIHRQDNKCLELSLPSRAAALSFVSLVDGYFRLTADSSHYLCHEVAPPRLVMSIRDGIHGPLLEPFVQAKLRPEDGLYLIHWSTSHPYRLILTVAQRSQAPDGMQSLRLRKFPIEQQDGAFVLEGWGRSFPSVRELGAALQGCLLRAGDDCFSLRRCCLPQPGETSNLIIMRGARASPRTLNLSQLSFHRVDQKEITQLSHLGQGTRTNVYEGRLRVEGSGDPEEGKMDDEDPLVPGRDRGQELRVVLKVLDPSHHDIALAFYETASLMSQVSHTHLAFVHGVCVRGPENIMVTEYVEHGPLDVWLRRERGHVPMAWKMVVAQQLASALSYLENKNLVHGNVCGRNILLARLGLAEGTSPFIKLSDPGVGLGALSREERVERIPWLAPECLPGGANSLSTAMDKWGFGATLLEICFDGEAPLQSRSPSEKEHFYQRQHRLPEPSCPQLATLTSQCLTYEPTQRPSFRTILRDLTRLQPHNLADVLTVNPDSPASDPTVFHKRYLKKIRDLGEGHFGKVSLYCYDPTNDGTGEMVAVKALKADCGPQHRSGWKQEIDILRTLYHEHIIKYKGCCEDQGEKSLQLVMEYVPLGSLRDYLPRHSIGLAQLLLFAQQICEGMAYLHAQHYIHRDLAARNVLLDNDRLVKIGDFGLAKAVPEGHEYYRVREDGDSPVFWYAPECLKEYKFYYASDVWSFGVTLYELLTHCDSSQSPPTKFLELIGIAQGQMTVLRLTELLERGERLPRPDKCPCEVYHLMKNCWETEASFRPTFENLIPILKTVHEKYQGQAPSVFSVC
PARAMETER_MEASURED: Ki (nM)
A number alone suffices; assume nM.

Sample `COC(=O)Nc1nccc2nc(-c3c(Cl)cccc3Cl)sc12` — what was its Ki?
1.4
